Some compounds, each annotated with its measured MIC.
# Test system: E. faecalis DH-5478
Number in µg/mL, nothing else.

Task item: Look at this compound and give its reported MIC. CCOC(=O)c1ccc(N=Nc2c(N)n[nH]c2N)cc1
Reply: 0.125

New cases:
Task item: If you can, please state the reported MIC value of CCOC(=O)c1ccc(N=Nc2c(N)nn(-c3ccccc3)c2N)cc1 .
Reply: 0.75

Task item: Also, CCOC(=O)c1ccc(N=Nc2c(N)nn3c(-c4cccs4)cc(-c4ccccc4)nc23)cc1 please.
Reply: 4

Task item: Input CC[C@H]1OC(=O)[C@H](C)[C@@H](O[C@H]2C[C@@](C)(OC)[C@@H](O)[C@H](C)O2)[C@H](C)[C@@H](O[C@@H]2O[C@H](C)C[C@H](N(C)C)[C@H]2O)[C@](C)(O)C[C@@H](C)C(=O)[C@H](C)[C@@H](O)[C@]1(C)O [E, Erythromycin, reference compound]
Reply: 32

Task item: Same question for CCOC(=O)c1ccc(N=Nc2c(N)nn3c(-c4ccco4)cc(-c4ccccc4)nc23)cc1 please.
Reply: 4

Task item: Same question, CCOC(=O)c1ccc(N=Nc2c(N)nn3c(N)c(C#N)c(-c4ccc(OC)cc4)nc23)cc1 this time
Reply: 2
